experiment_description: Cytotoxicity against human MDM cells by neutral red staining
Format: cell-based
Documented CC50 across a set of compounds

compound	CC50
CCN(CC)C(=O)NCC1CN(C(=O)c2cc(OC)c(OC)c(OC)c2)CCN1C(=O)c1cc(OC)c(OC)c(OC)c1 (stereo unspecified)	> 100 µM
CCCCNC(=O)OCC1CN(C(=O)c2cc(OC)c(OC)c(OC)c2)CCN1C(=O)c1cc(OC)c(OC)c(OC)c1 (stereo unspecified)	> 100 µM
CCC(=O)OCC1CN(C(=O)c2cc(OC)c(OC)c(OC)c2)CCN1C(=O)c1cc(OC)c(OC)c(OC)c1 (stereo unspecified)	> 100 µM
CCCN(CCC)C(=O)OCC1CN(C(=O)c2cc(OC)c(OC)c(OC)c2)CCN1C(=O)c1cc(OC)c(OC)c(OC)c1 (stereo unspecified)	> 100 µM
CCN(CC)C(=S)OCC1CN(C(=O)c2cc(OC)c(OC)c(OC)c2)CCN1C(=O)c1cc(OC)c(OC)c(OC)c1 (stereo unspecified)	> 1 µM
COc1cc(C(=O)N2CCN(C(=O)c3cc(OC)c(OC)c(OC)c3)C(CNC(=O)Nc3c(C)cccc3C)C2)cc(OC)c1OC (stereo unspecified)	> 100 µM
COc1cc(C(=O)N2CCN(C(=O)c3cc(OC)c(OC)c(OC)c3)C(CNC(=O)OC(C)C)C2)cc(OC)c1OC (stereo unspecified)	> 100 µM
COc1cc(C(=O)N2CCN(C(=O)c3cc(OC)c(OC)c(OC)c3)C(COC(=S)N(C)C)C2)cc(OC)c1OC (stereo unspecified)	> 100 µM
CCCCCCNC(=O)NCC1CN(C(=O)c2cc(OC)c(OC)c(OC)c2)CCN1C(=O)c1cc(OC)c(OC)c(OC)c1 (stereo unspecified)	> 100 µM
CCN(CC)C(=O)OCC1CN(C(=O)c2cc(OC)c(OC)c(OC)c2)CCN1C(=O)c1cc(OC)c(OC)c(OC)c1 (stereo unspecified)	> 1000 µM
CCCN(CCC)C(=O)NCC1CN(C(=O)c2cc(OC)c(OC)c(OC)c2)CCN1C(=O)c1cc(OC)c(OC)c(OC)c1 (stereo unspecified)	> 100 µM

###

experiment_description: Bioavailability in Sprague-Dawley rat at 500 mg/kg, po normalized to 1 mg/kg
Type: ADME, organism-based
settings: in vivo
measurement_kind: bioavailability (%)

compound	measurement_kind	val
CCN(CC)C(=O)OCC1CN(C(=O)c2cc(OC)c(OC)c(OC)c2)CCN1C(=O)c1cc(OC)c(OC)c(OC)c1 (stereo unspecified) [PMS-601]	bioavailability	10.9
